Parameter AUC(0-inf): see the listing below.
assay: AUCinfinity in SD rat at 10 mg/kg, po after 0.25 to 24 hrs by LC/MS/MS method; type: ADME, organism-based; parameters: dose 10 mg/kg, route oral, time infinity; settings: in vivo
Give just the numeric value; µM·h need not be written.

>>> print(df.to_string())
                            compound_smiles  endpoint_result
0  COc1cc(-c2cncc(-c3ccc(C4CCN(C)CC4)cc3)c2C)cc(OC)c1OC             12.9

AUC(0-inf) reported for this compound COc1cc(-c2cncc(-c3ccc(N4CCNCC4)cc3)c2C)cc(OC)c1OC : 17.4

====

test: Stability in human liver microsomes assessed as compound remaining at 1 uM incubated for 60 mins by LC/MS analysis; assay type: ADME, Microsome; settings: read-out: Stability
reported metric: remaining at 1 h, 1 µM (%)
Provide only the numeric value, understood in %.

>>> df
                            compound_smiles  endpoint_result
0  COc1cc(-c2cncc(-c3ccc(C4=CCNCC4)cc3)c2C)cc(OC)c1OC               68
1  COc1cc(-c2cncc(-c3ccc(OC4CCNCC4)cc3)c2C)cc(OC)c1OC             62.1
2  COc1cc(-c2cncc(-c3ccc(N4CCN(S(C)(=O)=O)CC4)cc3)c2C)cc(OC)c1OC             83.6
3  COc1cc(-c2cncc(-c3ccc(N4CCNCC4)cc3)c2C)cc(OC)c1OC             71.4

Now for another entry.
Lab book: remaining at 1 h, 1 µM of COc1cc(-c2cncc(-c3ccc(C4CCN(C)CC4)cc3)c2C)cc(OC)c1OC noted as 71.2

====

target: Mitogen-activated protein kinase kinase kinase 20 (Homo sapiens); test: Inhibition of ZAK (unknown origin)
Sequence (Q9NYL2 whole entry): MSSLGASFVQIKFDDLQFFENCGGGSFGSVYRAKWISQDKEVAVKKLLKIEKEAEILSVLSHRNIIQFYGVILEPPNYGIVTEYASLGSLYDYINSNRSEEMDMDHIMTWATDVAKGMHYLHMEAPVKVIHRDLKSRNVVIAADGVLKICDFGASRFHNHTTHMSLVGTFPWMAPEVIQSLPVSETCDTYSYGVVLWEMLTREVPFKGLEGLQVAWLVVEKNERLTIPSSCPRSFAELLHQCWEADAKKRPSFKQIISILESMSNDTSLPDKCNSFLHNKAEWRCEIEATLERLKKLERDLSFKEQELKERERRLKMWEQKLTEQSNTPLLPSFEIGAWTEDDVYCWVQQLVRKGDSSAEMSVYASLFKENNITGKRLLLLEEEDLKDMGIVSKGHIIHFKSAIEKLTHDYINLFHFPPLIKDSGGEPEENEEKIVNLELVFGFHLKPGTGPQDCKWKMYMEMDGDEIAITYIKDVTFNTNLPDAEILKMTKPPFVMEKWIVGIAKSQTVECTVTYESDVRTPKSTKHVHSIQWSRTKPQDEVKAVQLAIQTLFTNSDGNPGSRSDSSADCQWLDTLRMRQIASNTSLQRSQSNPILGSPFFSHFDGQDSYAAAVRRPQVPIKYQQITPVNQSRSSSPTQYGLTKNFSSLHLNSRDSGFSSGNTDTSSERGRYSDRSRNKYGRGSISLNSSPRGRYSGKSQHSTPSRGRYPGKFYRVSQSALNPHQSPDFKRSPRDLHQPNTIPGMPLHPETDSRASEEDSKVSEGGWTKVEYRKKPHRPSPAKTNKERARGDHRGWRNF
reported metric: IC50

IC50 measured on COc1cc(-c2cncc(-c3ccc(N4CCNCC4)cc3)c2C)cc(OC)c1OC = 336 to 924 nM

====

target: Cytochrome P450 3A4 (Homo sapiens, UniProt P08684); assay: Inhibition of CYP3A4 in human liver microsomes using midazolam as substrate incubated for 5 mins in presence of NADPH by LC/MS/MS analysis; assay type: ADME
Sequence (P08684 whole entry): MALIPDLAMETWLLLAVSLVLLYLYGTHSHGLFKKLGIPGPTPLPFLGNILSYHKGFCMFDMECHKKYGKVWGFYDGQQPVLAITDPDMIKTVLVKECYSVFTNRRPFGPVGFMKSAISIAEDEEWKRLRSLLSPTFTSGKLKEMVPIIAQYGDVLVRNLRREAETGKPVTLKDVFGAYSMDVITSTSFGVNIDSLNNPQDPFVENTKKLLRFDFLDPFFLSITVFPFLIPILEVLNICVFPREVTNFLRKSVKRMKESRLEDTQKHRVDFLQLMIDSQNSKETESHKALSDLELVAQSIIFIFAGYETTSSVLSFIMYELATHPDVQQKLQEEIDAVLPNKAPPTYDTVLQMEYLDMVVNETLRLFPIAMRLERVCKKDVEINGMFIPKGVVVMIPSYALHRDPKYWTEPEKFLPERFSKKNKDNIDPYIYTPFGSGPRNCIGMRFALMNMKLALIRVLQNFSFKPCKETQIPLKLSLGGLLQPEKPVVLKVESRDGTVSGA
pIC50: −log10 of the molar value.
reported metric: pIC50

Measured pIC50, COc1cc(-c2cncc(-c3ccc(N4CCNCC4)cc3)c2C)cc(OC)c1OC : < 4.52

====

The reader will find reported bioavailability values listed item by item below.
assay: Oral bioavailability in CB17 SCID mouse at 10 mg/kg after 0.25 to 24 hrs by LC/MS/MS method; assay type: ADME, organism-based; conditions: in vivo
Kindly answer with a numeric value in %, unit omitted.

Sample records with bioavailability:
>>> df
                            compound_smiles  reported_metric  unit_info  endpoint_result
0  COc1cc(-c2cncc(-c3ccc(N4CCN(S(C)(=O)=O)CC4)cc3)c2C)cc(OC)c1OC  bioavailability          %                7
1  COc1cc(-c2cncc(-c3ccc(N4CCNCC4)cc3)c2C)cc(OC)c1OC  bioavailability          %              100
2  COc1cc(-c2cncc(-c3ccc(C4CCN(C)CC4)cc3)c2C)cc(OC)c1OC  bioavailability          %               74

Memo: COc1cc(-c2cncc(-c3ccc(C4=CCNCC4)cc3)c2C)cc(OC)c1OC , reported bioavailability: 79

bioavailability measured on COc1cc(-c2cncc(-c3ccc(OC4CCNCC4)cc3)c2C)cc(OC)c1OC = 96
